Where these numbers come from: PubChem BioAssay (NCI)

System: M14 melanoma
Assay: NCI-60 one-dose screen, 48 h (100 = growth as untreated, 0 = no growth, -100 = all killed)
Details: 10 µM unless noted
The panel holds about 83,000 compounds, 20% with a hit somewhere; the sample as a whole holds those more often.
Form field: growth (one value per entry).

COMPOUND: COc1ccc(C/C(C)=C(\c2ccc(Cl)cc2)c2ccc(OCCCN(C)C)cc2)cc1
SYSTEM NAME: M14 melanoma
growth (%): 48.7

COMPOUND: O=C1CCCCN1c1ccc(C2=NCCCN2)cc1
SYSTEM NAME: M14 melanoma
growth (%): 104

COMPOUND: CCCCCc1ccc(S(=O)(=O)Nc2ccc3nc(N)oc3c2)cc1
SYSTEM NAME: M14 melanoma
growth (%): 73.1

COMPOUND: Cn1c(=O)c2[nH]c(SC/C(=N/O)c3ccc(Br)cc3)nc2n(C)c1=O
SYSTEM NAME: M14 melanoma
growth (%): 58.8

COMPOUND: Cc1cccc(-c2nc(C(C)C)sc2-c2ccnc(NCCCNS(=O)(=O)c3ccc(Cl)cc3)c2)c1
SYSTEM NAME: M14 melanoma
growth (%): 82.2

COMPOUND: NC(=O)c1ccccc1OCC(=O)Nc1ccc(Cl)c(Cl)c1
SYSTEM NAME: M14 melanoma
growth (%): 111

COMPOUND: COc1cccc(-c2cn3nc(-c4cn(C)c5ccccc45)sc3n2)c1
SYSTEM NAME: M14 melanoma
growth (%): 84.3

COMPOUND: CCOC(=O)CNC1=C(Cl)C(=O)N(Cc2ccc(Cl)cc2)C1=O
SYSTEM NAME: M14 melanoma
growth (%): 105

COMPOUND: COc1cc(/C=C/C(=O)N2CCN(C(=O)c3cc(OC)c(OC)c(OC)c3)CC2)ccc1OCCCOc1cc2c(cc1OC)C(=O)N1CCC[C@H]1C=N2
SYSTEM NAME: M14 melanoma
growth (%): -80.2

COMPOUND: C=C(C)[C@@H]1CC[C@]2(COC3CCCCO3)CC[C@]3(C)[C@H](CC[C@@H]4[C@@]5(C)C=C(C=O)C(=O)C(C)(C)[C@@H]5CC[C@]43C)[C@@H]12 (some centres undefined)
SYSTEM NAME: M14 melanoma
growth (%): -62.9

COMPOUND: O=c1cc(-c2ccccc2)nc(SCc2nc3cc(Cl)c(Cl)cc3[nH]2)[nH]1
SYSTEM NAME: M14 melanoma
growth (%): 104

COMPOUND: CNC(=O)NCC1OC(n2cnc3c(NC(=O)Nc4ccccc4)ncnc32)C2OC(=O)CC12 (centres undefined)
SYSTEM NAME: M14 melanoma
growth (%): 105

COMPOUND: Fc1cc2[nH]ncc2c2c3c(c(-c4cn[nH]c4C(F)(F)F)nc12)CCCC3
SYSTEM NAME: M14 melanoma
growth (%): -2.16

COMPOUND: COc1cc(/C=C/C(=O)c2cc(OC)c(OC)c(OC)c2)ccc1Oc1nc2c(c(=O)n(C)c(=O)n2C)n1C
SYSTEM NAME: M14 melanoma
growth (%): -28.5

COMPOUND: CNCCCNc1nc2ccccc2c2c(=O)c3cc(Cl)ccc3sc12
SYSTEM NAME: M14 melanoma
growth (%): -57.2

COMPOUND: COc1cc2c(c(OC)c1OC)C(=O)CC(c1cccc(C(=O)Nc3ccccc3Br)c1)O2 (centres undefined)
SYSTEM NAME: M14 melanoma
growth (%): 91.1

COMPOUND: CN(C)c1ccc(CNCCO)cc1
SYSTEM NAME: M14 melanoma
growth (%): 96.7

COMPOUND: Cc1ccc(-c2nc(SCC(=O)N3CCN(c4cc5c(cc4F)c(=O)c(C(=O)O)cn5C4CC4)CC3)nc(Cl)c2C#N)cc1
SYSTEM NAME: M14 melanoma
growth (%): 99

COMPOUND: C#Cc1cccc(Nc2ncnc3cc(NC(=O)CCl)ccc23)c1
SYSTEM NAME: M14 melanoma
growth (%): -87.4

----------
Form field: growth (one value per entry).
Tested on: NCI-H460 lung
Experiment: NCI-60 one-dose screen, 48 h (100 = growth as untreated, 0 = no growth, -100 = all killed)
Settings: 10 µM unless noted
About 83,000 compounds went through this panel and 20% of them were active in at least one assay; those are over-represented in the sample as a whole. Active and inactive are the calls of the source. How the source made its calls: active means growth percent below 10; inactive means the rest.

COMPOUND: Fc1cccc(-c2nc(-c3c[nH]c4ncccc34)cs2)c1
growth: 40.5% [100 µM] (inactive)
//
COMPOUND: CN(C)Cc1cc(C(C)(C)C)cc(Br)c1O
growth: 86.5% (inactive)
//
COMPOUND: C#Cc1cccc(NC(=O)C2CCCCN2C(=O)CCl)c1 (stereo not given)
growth: 10.9% [8.25 µM] (inactive)
//
COMPOUND: O=C(c1c[nH]c2ccccc12)c1n[nH]c(=S)n1-c1ccc([N+](=O)[O-])cc1
growth: 95.7% (inactive)
//
COMPOUND: COc1cc(/C=C2\C(=O)N(CCCOc3cc(O)c4c(=O)cc(-c5ccccc5)oc4c3)c3ccccc32)cc(OC)c1O
growth: 89.4% (inactive)

----------
Test system: COLO 205 colon
Assay: NCI-60 one-dose screen, 48 h (100 = growth as untreated, 0 = no growth, -100 = all killed)
Details: 10 µM unless noted
Compounds without any hit were thinned out: in the full panel of roughly 83,000, 20% have a hit.

COMPOUND: COc1cc(/C=C2\C(=O)N(CCCOc3cc(O)c4c(=O)cc(-c5ccccc5)oc4c3)c3ccccc32)cc(OC)c1O
growth / %: 82.6
//
COMPOUND: Cc1nn(C)c2ncnc(N/N=C/c3cccc(O)c3O)c12
growth / %: -3.31
//
COMPOUND: Cc1ccc2c(c1)nc(C)n2-c1ncnc2c1CC(C)c1cc(O)ccc1N2C (centres undefined)
growth / %: 98.5
//
COMPOUND: CNCCCNc1nc2ccccc2c2c(=O)c3cc(Cl)ccc3sc12
growth / %: -84.4
//
COMPOUND: CCOC(=O)C/C(=N\Nc1cc(=O)[nH]c2ccc(C)cc12)C(=O)OCC
growth / %: 124
//
COMPOUND: COc1cc2c(cc1OCCCN1CCN(C(=S)SCCC(C#N)(c3ccccc3)c3ccccc3)CC1)N=C[C@@H]1CCCN1C2=O
growth / %: -69.5
//
COMPOUND: Nc1cc(C(=O)O)cc(-n2c(O)c(C=C3N=c4ccccc4=N3)sc2=S)c1
growth / %: 103
//
COMPOUND: COc1ccc(-c2cc(C(=O)N3N=C(c4ccc(N)cc4)CC3c3ccc(Cl)cc3)c3ccccc3n2)cc1 (centres undefined)
growth / %: 2.76
//
COMPOUND: Oc1c(CN2CCC(N3CCOCC3)CC2)cc(Cc2cc(CN3CCC(N4CCOCC4)CC3)c(O)c3ncccc23)c2cccnc12
growth / %: 9.1

----------
System: BT-549 breast
Assay: NCI-60 one-dose screen, 48 h (100 = growth as untreated, 0 = no growth, -100 = all killed)
Conditions: 10 µM unless noted
The panel holds about 83,000 compounds, 20% with a hit somewhere; the sample as a whole holds those more often.
# label = Yes if growth < 90% else No

CHEMICAL SMILES: CCOC(=O)c1ccc[nH]1
CLASS NAME: Yes

CHEMICAL SMILES: O=[N+]([O-])c1ccccc1Nc1ccc2ccccc2c1
CLASS NAME: Yes

CHEMICAL SMILES: CCOc1ccc(NC(=O)Nc2ccc(OCC)cc2)cc1
CLASS NAME: No

----------
Test system: MOLT-4 leukemia
Assay: NCI-60 one-dose screen, 48 h (100 = growth as untreated, 0 = no growth, -100 = all killed)
Settings: 10 µM unless noted
Compounds without any hit were thinned out: in the full panel of roughly 83,000, 20% have a hit.
Each record gets a class by growth: class 0: < 30%; class 1: ≥ 30% and < 90%; class 2: ≥ 90%

COMPOUND: Cc1ccc(C2CC(c3cccc(Nc4ccncc4)c3)=Nc3c(N)nc(N)nc3N2)cc1 (stereo not given)
CLASS NAME: class 1
--
COMPOUND: CNCCCNc1nc2ccccc2c2c(=O)c3cc(Cl)ccc3sc12
CLASS NAME: class 0
--
COMPOUND: Cc1c(C(C)(C)O)cn2ncnc(Oc3ccc(NC(=O)Nc4ccc(Cl)c(C(F)(F)F)c4)c(F)c3)c12
CLASS NAME: class 1
--
COMPOUND: COc1nc(/C=C\Nc2ccc3c(c2)OCCOCCOCCOCCO3)nc(OC)n1
CLASS NAME: class 2
--
COMPOUND: CCOC(=O)C/C(=N\Nc1cc(=O)[nH]c2ccc(OC)cc12)C(=O)OCC
CLASS NAME: class 0
--
COMPOUND: O=C1OCC2=C1C(c1ccccc1)c1cc3c(cc1N2CCO)OCCO3 (stereo not given)
CLASS NAME: class 0
--
COMPOUND: CCCCCCCCCCCCCCCCCCOc1ccccc1CC(=O)NCC[N+](C)(C)C
CLASS NAME: class 0
--
COMPOUND: O=c1cc(CP(=O)(O)O)c2cc(O)c(-c3ccccc3)cc2o1
CLASS NAME: class 2
